Test system: 699152-130-R-J1-PDC complex spheroid growth;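 note: compound exposure lasted 7 days after spheroids had grown for 3 days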
METHOD: Anticancer human tumor 699152-130-R-J1-PDC patient-derived pancreatic carcinoma cell line growth inhibition [AhR]; active = viability on the fitted dose curve at most 10% of control; inactive = the rest
MEASUREMENT_CONTEXT: second compound 10 µM; first compound 0.01 µM
Valid outcomes are listed here; reply with one: true for active, false for inactive

Use these answered entries as a reference point.
Nc1ncn(C2CC(O)C(CO)O2)c(=O)n1 (centres undefined) + CC(CO)NC(=O)c1cc(-c2ccc(Cl)cc2)nn(-c2cnn(C)c2)c1=O
false
Nc1ncn(C2CC(O)C(CO)O2)c(=O)n1 (centres undefined) + Cc1cncc(-c2nc(NCCc3c[nH]c4ccccc34)c3ncn(C(C)C)c3n2)c1
true
CC1COCCN1c1cc(-c2ccnn2C)c2ccnc(-c3ccn[nH]3)c2n1 (centres undefined) + CC(CO)NC(=O)c1cc(-c2ccc(Cl)cc2)nn(-c2cnn(C)c2)c1=O
false
CC[C@@]1(O)C(=O)OCc2c1cc1n(c2=O)Cc2cc3c(CN(C)C)c(O)ccc3nc2-1 + CC(CO)NC(=O)c1cc(-c2ccc(Cl)cc2)nn(-c2cnn(C)c2)c1=O
false

What did the test return for CC1COCCN1c1cc(-c2ccnn2C)c2ccnc(-c3ccn[nH]3)c2n1 (centres undefined) + Cc1cncc(-c2nc(NCCc3c[nH]c4ccccc34)c3ncn(C(C)C)c3n2)c1 ?
true

What did the test return for CC[C@@]1(O)C(=O)OCc2c1cc1n(c2=O)Cc2cc3c(CN(C)C)c(O)ccc3nc2-1 + Cc1cncc(-c2nc(NCCc3c[nH]c4ccccc34)c3ncn(C(C)C)c3n2)c1 ?
false

Name the outcome recorded for Nc1ncn(C2CC(O)C(CO)O2)c(=O)n1 (centres undefined) + Cc1ccccc1N=Nc1ccc(NC(=O)c2ccnn2C)c(C)c1 in the assay.
false

// return assay outcome for Cn1ncnc1C1c2n[nH]c(=O)c3cc(F)cc(c23)NC1c1ccc(F)cc1 (centres undefined) + Cc1ccccc1N=Nc1ccc(NC(=O)c2ccnn2C)c(C)c1
false

Status in this test for CC[C@@]1(O)C(=O)OCc2c1cc1n(c2=O)Cc2cc3c(CN(C)C)c(O)ccc3nc2-1 + Cc1ccccc1N=Nc1ccc(NC(=O)c2ccnn2C)c(C)c1 ?
false

Source listed as PubChem BioAssay AID1919001.
